B1: TRAF3IP2 (parent)
chain: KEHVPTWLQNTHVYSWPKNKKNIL

Variants of: B1
assay.method.text: protein stability index of a GFP-peptide fusion (GPS, HEK-293T) (PSI 1-6); higher = more stable;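 further: lentivirally expressed fusions sorted by FACS into six bins by GFP to DsRed ratio, PSI derived from sequencing read proportions per bin multiplied by bin number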
assay.context: c terminus: a fixed tail appended
recorded.metric: protein stability index
Note: the reply should be a number with no unit written.

T11D	2.52
I23K	3.52
V13C	2.49
T6P	3.07
Q9K	1.87

Q: Fill blank: measured protein stability index of the variant `P5T` is ____.
A: 2.14

Q: And the next one, `Y14S` ?
A: 3.4

Q: Now consider `L24A` .
A: 3.28

Q: Also check `H3W`
A: 2.02

Q: Repeat with `L24E`
A: 2.84

Q: Could you do the same for `E2H` , please?
A: 2.08
